Experiment: solvent given as SMILES
Conditions: in CCCCOCCCC
# absorption maximum listing for each entry below

{"columns": ["test smiles", "absorption maximum [nm]"],
 "data": [
  ["CCCCCCCCCCCCCCCCOc1cc(C#Cc2ccc3ccccc3c2-c2c(C#Cc3cc(OCCCCCCCCCCCCCCCC)c(C#Cc4ccc(C=C(C#N)C#N)cc4)cc3OCCCCCCCCCCCCCCCC)ccc3ccccc23)c(OCCCCCCCCCCCCCCCC)cc1C#Cc1ccc(C=C(C#N)C#N)cc1", 435],
  ["c1ccc(Nc2nc(Nc3ccccc3)nc(Nc3ccc4cc5ccccc5cc4c3)n2)cc1", 402],
  ["c1ccc(-c2nn(-c3ccccc3)c3nc4ccc(N(c5ccccc5)c5ccccc5)cc4cc23)cc1", 451.06],
  ["CCCCCCCCC1(CCCCCCCC)c2cc(-c3ccc(C(F)(F)F)cc3)ccc2-c2ccc(N(c3ccc(-n4c5ccccc5c5ccccc54)cc3)c3ccc4c(c3)C(CCCCCCCC)(CCCCCCCC)c3cc(-c5ccc(C(F)(F)F)cc5)ccc3-4)cc21", 379],
  ["COc1ccc2c3c(cccc13)C(=O)c1ccccc1-2", 412.03],
  ["COc1nc(Nc2cc3ccc4cccc5ccc(c2)c3c45)nc(OC)n1", 336],
  ["COc1nc(Nc2ccc3ccc4cccc5ccc2c3c45)nc(OC)n1", 341],
  ["Clc1nc(Cl)nc(Nc2ccc3ccc4cccc5ccc2c3c45)n1", 341],
  ["CN(C)c1ccc(C=C/C=C/C=C/c2ccc(C#N)cc2)cc1", 416],
  ["CC(=O)Nc1ccc2ccc3cccc4ccc1c2c34", 341],
  ["O=S(=O)(c1ccc(-c2ccc(-c3nc4c5ccccc5c5ccccc5c4n3-c3ccccc3)cc2)cc1)c1ccc(-c2ccc(-c3nc4c5ccccc5c5ccccc5c4n3-c3ccccc3)cc2)cc1", 368]
]}
